Please go through the items and note down their pKa.
assay: Compound was evaluated for pKa value by potentiometric titration; format: physicochemical
Write the value as a bare number.

Query: Which value of pKa has been reported for CC1C/C(=N/OCC(O)CNC(C)(C)C)CC(C)(C)C1 (configuration not stated) in the records?
Response: 9.41

Query: Which value of pKa has been reported for CC(OCC(O)CNC(C)(C)C)C1CC1 (configuration not stated) in the records?
Response: 9.76

Query: Which value of pKa has been reported for CC(C)=NOCC(O)CNC(C)(C)C (configuration not stated) in the records?
Response: 9.42

Query: Which value of pKa has been reported for CC(C)OCC(O)CNC(C)(C)C (configuration not stated) in the records?
Response: 9.9

Query: Which value of pKa has been reported for CC(C)(C)NCC(O)COCC1CC1 (configuration not stated) in the records?
Response: 9.73

Query: Which value of pKa has been reported for CC(C)COCC(O)CNC(C)(C)C (configuration not stated) in the records?
Response: 9.73

Query: Which value of pKa has been reported for CC1CC(OCC(O)CNC(C)(C)C)CC(C)(C)C1 (configuration not stated) in the records?
Response: 9.94

// data source = ChEMBL document CHEMBL1122733
